Measured pIC50 on Gβ1γ2 (Homo sapiens, UniProt P62873) follows.
Please treat pIC50 as minus the base-10 logarithm of the molar concentration.

What pIC50 value was documented for this compound, O=C(O)/C=C/c1c2ccc(=O)c(O)c-2oc2c(O)c(O)ccc12 ?
6.70

Item: Nc1c(S(=O)(=O)O)cc(Nc2cccc(S(N)(=O)=O)c2)c2c1C(=O)c1ccccc1C2=O
4.25

What would you report for CN1C[C@H](c2ccccc2)C(O)([C@]2(c3ccccc3)CN(C)C[C@@H](c3ccccc3)C2=O)[C@H](c2ccccc2)C1 (stereo partly shown) ?
4.97

Param item: C[C@]12CC[C@H]3[C@@H](CCC4=CC(=O)CC[C@@]43C)[C@@H]1CC[C@@H]2C(=O)COS(=O)(=O)c1ccc(Br)cc1
4.32

Also O=C(O)c1c(Br)c(Br)c(Br)c(Br)c1C1c2ccc(O)cc2Oc2cc(O)ccc21 , if possible.
5.37

Follow-up item: COc1ccc(CC[N@+]2(C)COc3cc4oc(=O)cc(C)c4cc3C2)cc1OC
3.71

Same question, CN(C)CS/C(N)=N/[C@H](O)C(Cl)(Cl)Cl this time
4.59
